- test_target: Cytochrome P450 2C9 (Homo sapiens)
- assay_remarks: Cytochrome P450 Family 2 Subfamily C Member 9 (CYP2C9) small molecule antagonists: luciferase reporter qHTS assay (AID 1671198); also: nearly all actives have a fitted effect of over 50% in size
- test_parameters: P450-Glo CYP2C9 enzyme assay, luciferin luminescence; series mostly up to 115 µM
Results filed as inconclusive are left out. Calls of active or inactive are those of the source. Calls follow the shape of the dose curve; as a rule, active = well fitted inhibition curve with a large enough effect in the repeat runs; inconclusive = weak or mixed curves; inactive = no such curve, though single readings can be large or run the other way.
Your response should consist of one outcome taken from active, inactive

Query: Per the records of this test, what outcome belongs to O=Cc1ccc(F)cc1 ?
Reply: inactive

Query: Quick one: O=C(c1ccccc1)c1cc(Cl)ccc1O
Reply: active

Query: Quick one: C/C=C/C(=O)Oc1c(CCCCCC(C)C)cc([N+](=O)[O-])cc1[N+](=O)[O-]
Reply: active

Query: Quick one: O=C(O)CCn1c2c(c3ccccc31)C[C@H](NS(=O)(=O)c1ccc(F)cc1)CC2
Reply: active

Query: Quick one: CC(=O)Oc1ccc(C2(c3ccc(OC(C)=O)cc3)C(=O)Nc3ccccc32)cc1
Reply: active

Query: Quick one: CCCCN(CCCC)CCC(O)c1cc2c(Cl)cc(Cl)cc2c2cc(C(F)(F)F)ccc12 (stereo not given)
Reply: inactive

Query: Quick one: CSc1c(Cl)c(Cl)c(Cl)c(Cl)c1Cl
Reply: inactive

Query: Quick one: CCCCCCOc1cc(C)c(O)c(C)c1C
Reply: active

Query: Quick one: CCCCCCCCCCCCCCCC
Reply: active

Query: Quick one: C/C=C/CO
Reply: inactive

Query: Quick one: C=C(C)C(=O)OCCC[Si](Cl)(Cl)Cl
Reply: active

Query: Quick one: OCCN1CN(CCO)CN(CCO)C1
Reply: inactive

Query: Quick one: CC(C)(C)c1cc(/C=C2\SC(=N)NC2=O)cc(C(C)(C)C)c1O
Reply: active

Query: Quick one: CC(O)C#CC(C)O (stereo not given)
Reply: inactive

Query: Quick one: Cc1cc(Nc2ccc(O)cc2)ccc1N
Reply: active

Query: Quick one: COc1ccc2sc(C(=O)Nc3nnn[nH]3)c(OC(C)C)c2c1
Reply: active

Query: Quick one: CC1=CP(=O)(c2ccccc2)CC1 (stereo not given)
Reply: inactive

Query: Quick one: O=C1NCCN1CCN1CCC(c2cn(-c3ccc(F)cc3)c3ccc(Cl)cc23)CC1
Reply: inactive

Query: Quick one: CN1CN(C)CN(C)C1
Reply: inactive

Query: Quick one: CCCCOCC
Reply: inactive

Query: Quick one: CC1=CCC(=O)O1
Reply: inactive

Query: Quick one: C=CC(=O)OCCOCC(CC)(COCCOC(=O)C=C)COCCOC(=O)C=C
Reply: active

Query: Quick one: O=c1cccc[nH]1
Reply: inactive

Query: Quick one: CCc1ccc(C)nc1
Reply: inactive

Query: Quick one: ClC/C=C\CCl
Reply: inactive

Query: Quick one: C=C(C)CCCC
Reply: inactive

Query: Quick one: O=Nc1ccc(NO)cc1
Reply: inactive

Query: Quick one: CC1CCCCN1CCCOC(=O)c1ccc(OC2CCCCC2)cc1 (stereo not given)
Reply: inactive

Query: Quick one: CC(NCCC(c1ccccc1)c1ccccc1)c1ccccc1 (stereo not given)
Reply: active

Query: Quick one: O=C1OC(=O)c2cccc3cccc1c23
Reply: inactive

Query: Quick one: Cc1cnccn1
Reply: inactive

Query: Quick one: O=C(Nc1ccc(Cl)c(Cl)c1)c1cc(Cl)cc(Cl)c1O
Reply: active

Query: Quick one: CC1CNCC(C)O1 (stereo not given)
Reply: inactive

Query: Quick one: C=CC(C)C#N (stereo not given)
Reply: inactive

Query: Quick one: C=C(c1ccc(C(=O)O)cc1)c1cc2c(cc1C)C(C)(C)CCC2(C)C
Reply: active

Query: Quick one: CCC1(c2cnc[nH]2)Cc2ccccc2C1
Reply: active

Query: Quick one: CC(=O)c1ccccc1N
Reply: inactive

Query: Quick one: Cc1occc1SSc1ccoc1C
Reply: active

Query: Quick one: CCCCOC(=O)C(C)CC (stereo not given)
Reply: inactive

Query: Quick one: COC(=O)CC#N
Reply: inactive
